# Test system: IL-2 production in primary mouse CD3+ T cells
# test: Cytokine measurement: IL-2 production in mouse CD3+ T cells (ELISA)
# Assay type: cell-based
# experimental-context: T-cell, 3 uM compound, plate bound anti-CD3, 40 hrs, read-out: IL-2 production Fold change (3 uM)
metric-name: fold induction at 3 µM
Please reply with the value in numeric form only.

Solved cases below.
molecule="O=C1CCC(N2C(=O)c3ccc(N4CCC(COC(=O)N5CCN(c6cccc(-c7cnc8[nH]cc(C9CC9)c8c7Cl)c6)C(=O)C5)CC4)cc3C2=O)C(=O)N1 (centres unmarked) [Example 88]" recorded_measurement=2.4
molecule="O=C1CCC(N2Cc3cc(N4CCN(CCCN5CCN(c6cccc(-c7cnc8[nH]cc(C9CC9)c8c7Cl)c6)C(=O)C5)CC4)ccc3C2=O)C(=O)N1 (centres unmarked) [Example 63]" recorded_measurement=2

Query string: Which fold induction at 3 µM value is on record for O=C1CCC(N2C(=O)c3ccc(OCCC4CN(C(=O)N5CCN(c6cccc(-c7cnc8[nH]cc(C9CC9)c8c7Cl)c6)C(=O)C5)C4)cc3C2=O)C(=O)N1 (centres unmarked) [Example 95] ?
Result string: 2.7
